B1: F-BAR and double SH3 domains protein 1, residues 467 to 528; numbered along this chain, Q86WN1 (parent)
chain: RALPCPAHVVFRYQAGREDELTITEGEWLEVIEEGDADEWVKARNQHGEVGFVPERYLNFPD

Variants of: B1
assay.summary: abundance fitness (aPCA) (normalised: wild type 0, dead -1); higher = more abundant; growth selection in yeast, the domain comes from the species named
condition.description: Homo sapiens
Dear colleague, classification is by abundance fitness, with ranges listed here: low bracket = under -0.5, middle bracket = from -0.5 up to -0.2, high bracket = -0.2 and over

R1E
middle bracket
E34A
high bracket
V10F
middle bracket
G35W
middle bracket
C5W
middle bracket
Y13I
low bracket
L3N
high bracket
T24P
low bracket

q: Class label required: T22S
a: high bracket

q: Class label required: L3C
a: high bracket
